# Tested on: primary human T-cells;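 further: cd3-stimulated proliferation read by CellTiter-Glo after 5 days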
Classify: Fulfilled when EC50 is strictly less than 500 nM; Not fulfilled when EC50 is not.

In: Is 500 nM strictly greater than the molecule's reported EC50? molecule: CC(C)Nc1nnc(-c2ccc3c(c2)N(Cc2ccc(Cl)cc2)C(=O)[C@@H](N)CS3(=O)=O)o1
Out: Not fulfilled

In: Is 500 nM strictly greater than the molecule's reported EC50? molecule: N[C@H]1CS(=O)(=O)c2ccc(-c3nnc(N4CCOC5CC54)o3)cc2N(Cc2ccc(Cl)cc2)C1=O (some centres unmarked)
Out: Not fulfilled

In: Is 500 nM strictly greater than the molecule's reported EC50? molecule: COC(F)(c1nc(-c2cc3c(cc2F)S(=N)(=O)C[C@H](N)C(=O)N3Cc2ccc(Cl)cc2)no1)C(F)(F)F (some centres unmarked)
Out: Not fulfilled

In: Is 500 nM strictly greater than the molecule's reported EC50? molecule: Cc1cc2c(cc1-c1nnc(C(C)(C)C)o1)N(Cc1ccc(Cl)cc1)C(=O)[C@@H](N)CS2(=O)=O
Out: Not fulfilled

In: Is 500 nM strictly greater than the molecule's reported EC50? molecule: COC(=O)N1CC(c2nnc(-c3cc4c(cc3F)S(=O)(=O)C[C@H](N)C(=O)N4Cc3ccc(Cl)cc3)o2)CC(F)(F)C1 (some centres unmarked)
Out: Fulfilled

In: Is 500 nM strictly greater than the molecule's reported EC50? molecule: CC(C)(C)c1nnc(-c2cc3c(cc2F)S(=O)(=O)C[C@H](N)C(=O)N3Cc2ccc(OC3CCOC3)cc2)o1 (some centres unmarked)
Out: Fulfilled

In: Is 500 nM strictly greater than the molecule's reported EC50? molecule: N[C@H]1CS(=O)(=O)c2cc(F)c(-c3nnc(NC4CCCN(CC(F)(F)F)C4)o3)cc2N(Cc2ccc(Cl)cc2)C1=O (some centres unmarked)
Out: Not fulfilled

In: Is 500 nM strictly greater than the molecule's reported EC50? molecule: N[C@H]1CS(=O)(=O)c2cc(F)c(-c3noc(NC4CC(F)(F)C4)n3)cc2N(Cc2ccc(Cl)cc2)C1=O
Out: Not fulfilled

In: Is 500 nM strictly greater than the molecule's reported EC50? molecule: N[C@H]1CS(=O)(=O)c2cc(F)c(-c3nnc(CC(F)(F)F)o3)cc2N(Cc2ccc(Cl)cc2)C1=O
Out: Not fulfilled

In: Is 500 nM strictly greater than the molecule's reported EC50? molecule: CN1CC(n2nnc(-c3cc4c(cc3F)S(=O)(=O)C[C@H](N)C(=O)N4Cc3ccc(Cl)cc3)n2)CC(F)(F)C1 (some centres unmarked)
Out: Not fulfilled

In: Is 500 nM strictly greater than the molecule's reported EC50? molecule: N[C@H]1CS(=O)(=O)c2cc(F)c(-c3nnc(NC4CC(C(F)(F)F)C4)o3)cc2N(Cc2ccc(Cl)cc2)C1=O (some centres unmarked)
Out: Not fulfilled

In: Is 500 nM strictly greater than the molecule's reported EC50? molecule: CC(C)(CNC1CCOC1)c1nnc(-c2cc3c(cc2F)S(=O)(=O)C[C@H](N)C(=O)N3Cc2ccc(Cl)cc2)o1 (some centres unmarked)
Out: Not fulfilled

In: Is 500 nM strictly greater than the molecule's reported EC50? molecule: NC(c1nnc(-c2cc3c(cc2F)S(=O)(=O)C[C@H](N)C(=O)N3Cc2ccc(Cl)cc2)o1)C(F)(F)F (some centres unmarked)
Out: Fulfilled

In: Is 500 nM strictly greater than the molecule's reported EC50? molecule: N[C@H]1CS(=O)(=O)c2cc(F)c(-c3nnc(C4CC5(CCOC5)C4)o3)cc2N(Cc2ccc(Cl)cc2)C1=O (some centres unmarked)
Out: Fulfilled
